Test: Microsomal stability
Type: in vitro ADME
Settings: mouse liver microsomes
Procedure: […] Reactions were terminated by addition of acetonitrile and precipitates separated by centrifugation. Compound concentrations in supernatants were measured by HPLC-MS/MS and clearance was calculated from compound half-lives using the well-stirred liver model.
result type: Mic. Stab. Mouse

compound	result type	result
Cc1ncsc1-c1ccc([C@H](COC(C)(C)CN2CCC(c3ccc4c(c3)n(C3CCCC3)c3nc(=O)c5c(Br)cccc5n43)CC2)NC(=O)[C@@H]2C[C@@H](O)CN2C(=O)[C@@H](NC(=O)C2(F)CC2)C(C)(C)C)cc1 [compound 28]	Mic. Stab. Mouse	<24 % QH
Cc1ncsc1-c1ccc([C@H](COCCN2CCC(c3ccc4c(c3)n(C3CCCC3)c3nc(=O)c5c(Br)cccc5n43)CC2)NC(=O)[C@@H]2C[C@@H](O)CN2C(=O)[C@@H](NC(=O)C2(N(C)C)CC2)C(C)(C)C)cc1 [compound 26]	Mic. Stab. Mouse	>88 % QH
Cc1ncsc1-c1ccc([C@H](CCCCCN2CCC(c3ccc4c(c3)n(C3CCCC3)c3nc(=O)c5c(Br)cccc5n43)CC2)NC(=O)[C@@H]2C[C@@H](O)CN2C(=O)[C@@H](NC(=O)C2(F)CC2)C(C)(C)C)cc1 [compound 11]	Mic. Stab. Mouse	<24 % QH
Cc1ncsc1-c1ccc([C@H](COCCCN2CCC(c3ccc4c(c3)n(C3CCCC3)c3nc(=O)c5c(Br)cccc5n43)CC2)NC(=O)[C@@H]2C[C@@H](O)CN2C(=O)[C@@H](NC(=O)C2(F)CC2)C(C)(C)C)cc1 [compound 27]	Mic. Stab. Mouse	<25 % QH

Numbers sourced from paper PMC9551036.
